biological target: rat collagen (acid soluble, type I, rat tail, Millipore Inc, cat#08-115) (rat) (UniProt P02454); assay: dried collagen film in microtiter plate; unbound compound by ICP-MS (Gd); fit to 1 binding site
Bridge positions count the residues as written; N and C are the ends. Square brackets hold non-standard residues; d marks the D form. Primed or numbered codes have the meaning given here. Ends that are not written are not given here. GdDOTAGA″ = gadolinium DOTAGA chelate, amide-bonded; Bip = N[C@@H](Cc1ccc(-c2ccccc2)cc1)C(=O)O
Measured Kd, listed per entry.
QUANTITY: Kd (µM)

BINDER | QUANTITY | MEASURED_RESULT
KWHCYTKFPHHYCVY[Bip]-NH2 (disulfide 4-13; also: GdDOTAGA on N-terminal nitrogen or Lys epsilon amines, sites not fixed) [Compound ID No. 4] | Kd | 4.6
{GdDOTAGA″}-K(GdDOTAGA″)WHCTTK(GdDOTAGA″)FPHHYCLY[Bip]-NH2 (disulfide 4-13) [Compound ID No. 2] | Kd | 20.6
